Test system: CCRIS mutagenicity, Ames/micronucleus/aberration tests
Assay: CCRIS mutagenicity studies
Settings: Test System: AMES SALMONELLA TYPHIMURIUM; Strain/Indicator: TA100; Metabolic Activation: RAT, LIVER, S-9, PHENOBARBITAL AND BETA-NAPHTHOFLAVONE; Method: PREINCUBATION
Text: The CCRIS database contains chemical records with carcinogenicity, mutagenicity, tumor promotion, and tumor inhibition test results. It was developed by the National Cancer Institute (NCI). Data are derived from studies cited in primary journals, current awareness tools, NCI reports, and other sources. Test results have been reviewed by experts in carcinogenesis and mutagenesis. CCRIS provides historical information from the years 1985 - 2011. It is no longer updated. […]
Calls of active or inactive are those of the source. No rule for the calls is given here.
recorded.metric: mutagenic call

molecule	study.target	mutagenic call
COC(=O)Nc1nc2ccccc2[nH]1	CCRIS mutagenicity, Ames/micronucleus/aberration tests	inactive; negative
O=C1c2ccccc2-c2c3c(cc4ccnc1c24)OCO3	CCRIS mutagenicity, Ames/micronucleus/aberration tests	active; positive
Nc1cccc(N)n1	CCRIS mutagenicity, Ames/micronucleus/aberration tests	inactive; negative
O=[N+]([O-])c1ccc(O)c([N+](=O)[O-])c1	CCRIS mutagenicity, Ames/micronucleus/aberration tests	inactive; negative
Nc1ccccc1S	CCRIS mutagenicity, Ames/micronucleus/aberration tests	inactive; negative

Give one value of mutagenic call per listed compound.
1. NCc1ccc(CN)cc1
2. N#Cc1cc([N+](=O)[O-])ccc1N

inactive; negative
active; positive

* * *

test system: CCRIS mutagenicity, Ames/micronucleus/aberration tests; test: CCRIS mutagenicity studies; settings: Test System: AMES SALMONELLA TYPHIMURIUM; Strain/Indicator: TA98; Metabolic Activation: RAT, LIVER, S-9, AROCLOR 1254 (10%); Method: PREINCUBATION
Active and inactive are the calls of the source. The rule behind the calls is not given here.
Answer with one of the outcomes given here: T = active, F = inactive

compound	class.assignment
C=C(C)C(=O)OC(C)C	F
CCCCC(CC)COS(=O)(=O)O (stereo not drawn)	F
C=CC(=C)C	F
c1ccc(P(c2ccccc2)c2ccccc2)cc1	F
OCCO	F

What call does the record list for CC(=O)Nc1ccc(O)cc1 ?
F

What call does the record list for COC(=O)Nc1nc2ccccc2[nH]1 ?
T

* * *

tested on: CCRIS mutagenicity, Ames/micronucleus/aberration tests; assay: CCRIS mutagenicity studies; settings: Test System: AMES SALMONELLA TYPHIMURIUM; Strain/Indicator: TA98(1,8-DNP6); Metabolic Activation: NONE; Method: SUSPENSION
Active and inactive are the calls of the source. How the calls were made is not given here.
Answer with one of the outcomes given here: true (active), false (inactive)

These solved cases illustrate the format of a correct answer.
molecule	class.assignment
O=[N+]([O-])c1cccc2oc3ccccc3c12	false
O=[N+]([O-])c1ccc2c(c1)oc1ccccc12	true
O=[N+]([O-])c1ccc2c(c1)Oc1ccccc1O2	true

What call does the record list for O=[N+]([O-])c1ccc2c(c1)Oc1ccc([N+](=O)[O-])cc1O2 ?
true

* * *

system: CCRIS mutagenicity, Ames/micronucleus/aberration tests; experiment: CCRIS mutagenicity studies; conditions: Test System: E. COLI; Strain/Indicator: WP2 UVRA; Metabolic Activation: RAT, LIVER, S-9, PHENOBARBITAL AND 5,6-BENZOFLAVONE; Method: PREINCUBATION
Calls of active or inactive are those of the source. No rule for the calls is given here.
Answer with one of the outcomes given here: active, inactive

molecule	class.assignment
OC[C@@H](O)[C@@H](O[C@@H]1O[C@H](CO)[C@H](O)[C@H](O)[C@H]1O)[C@H](O)[C@@H](O)CO	inactive

What call does the record list for CCCCN(N=O)C(=O)N(C)C ?
active

What call does the record list for CO/N=C(\C(=O)N[C@@H]1C(=O)N2C(C(=O)OCOC(=O)C(C)(C)C)=C(/C=C\c3scnc3C)CS[C@H]12)c1csc(N)n1 ?
inactive

What call does the record list for Cc1ccccc1N ?
inactive

* * *

test system: CCRIS mutagenicity, Ames/micronucleus/aberration tests; assay: CCRIS mutagenicity studies; conditions: Test System: AMES SALMONELLA TYPHIMURIUM; Strain/Indicator: TA100; Metabolic Activation: RAT, LIVER, S-9, AROCLOR 1254; Method: STANDARD PLATE
Calls of active or inactive are those of the source. The rule behind the calls is not given here.
Answer with one of the outcomes given here: active, inactive

These solved cases illustrate the format of a correct answer.
molecule	class.assignment
O=C(O)c1nn(Cc2ccc(Cl)cc2Cl)c2ccccc12	inactive
CC(=O)O[C@@H]1[C@@H](O)[C@H](O[C@H]2[C@H](OC(=O)[C@H]3CC[C@@H]4[C@H](C3)O[C@@]3(C[C@H](OC(=O)/C=C/c5ccccc5)[C@H](C)CO3)[C@]43CO3)O[C@H](C)[C@@H](O)[C@@H]2OC(C)=O)O[C@H](C)[C@H]1O	inactive

We now examine a further molecule.
What call does the record list for O=c1c(O)c(O)c1=O ?
inactive

* * *

tested on: CCRIS mutagenicity, Ames/micronucleus/aberration tests; assay: CCRIS mutagenicity studies; conditions: Test System: AMES SALMONELLA TYPHIMURIUM; Strain/Indicator: TA98(1,8-DNP6); Metabolic Activation: NONE; Method: STANDARD PLATE
The source made the active and inactive calls. The rule behind the calls is not given here.
Answer with one of the outcomes given here: active, inactive

compound	study.target	class.assignment
O=[N+]([O-])c1ccc(-c2ccc([N+](=O)[O-])cc2)cc1	CCRIS mutagenicity, Ames/micronucleus/aberration tests	active
O=[N+]([O-])c1ccc2c3c4c(cccc4c4ccccc4c13)C1OC21 (stereo unspecified)	CCRIS mutagenicity, Ames/micronucleus/aberration tests	inactive
O=[N+]([O-])c1ccc2c(c1)Cc1cc([N+](=O)[O-])ccc1-2	CCRIS mutagenicity, Ames/micronucleus/aberration tests	active

What call does the record list for Cc1ccc(/C=C/c2ccc(N)cc2)cc1 ?
inactive

What call does the record list for O=C/C=C/c1ccc([N+](=O)[O-])o1 ?
active

What call does the record list for O=[N+]([O-])c1cccc2c1ccc1cccc([N+](=O)[O-])c12 ?
active

What call does the record list for CC(=O)N(O)c1ccc2ccc3cccc4ccc1c2c34 ?
active

What call does the record list for CC(=O)Nc1ccc2c(=O)c(=O)c3cccc4ccc1c2c43 ?
inactive

What call does the record list for COC(=O)c1oc([N+](=O)[O-])c(-c2ccccc2)c1-c1ccccc1 ?
active

What call does the record list for Cn1c(NO)nc2ncc(-c3ccccc3)cc21 ?
active

What call does the record list for O=c1oc2cc([N+](=O)[O-])ccc2c2ccccc12 ?
active

* * *

test system: CCRIS mutagenicity, Ames/micronucleus/aberration tests; assay: CCRIS mutagenicity studies; conditions: Test System: AMES SALMONELLA TYPHIMURIUM; Strain/Indicator: TA98; Metabolic Activation: RAT, LIVER, S-9, AROCLOR 1254 (30%); Method: PREINCUBATION
Activity calls are given as the source filed them. No rule for the calls is given here.
Answer with one of the outcomes given here: Y for active, N for inactive

These solved cases illustrate the format of a correct answer.
molecule	class.assignment
CC(C)C(C)C	N
O=C(Nc1ccccc1)c1cc2ccccc2c(N=Nc2cc(Cl)ccc2Cl)c1O	N
COc1ccc(C(=O)c2ccccc2)c(O)c1	N
CC/C=C/C#N	N
CCC(C)(C)c1ccc(O)cc1	N
O=C1c2ccccc2C(=O)C1c1ccc2ccccc2n1	Y
Cc1ccc(CO)cc1	N
CCCCC(CC)COCCC#N (centres undefined)	N

What call does the record list for [O-][Br+2]([O-])O ?
N

* * *

system: CCRIS mutagenicity, Ames/micronucleus/aberration tests; assay: CCRIS mutagenicity studies; conditions: Test System: AMES SALMONELLA TYPHIMURIUM; Strain/Indicator: TA1535; Metabolic Activation: RAT, LIVER, S-9, AROCLOR 1254; Method: STANDARD PLATE
Active and inactive are the calls of the source. No rule for the calls is given here.
Answer with one of the outcomes given here: t for active, f for inactive

These solved cases illustrate the format of a correct answer.
molecule	class.assignment
COc1c(N)cc(C)c(N)c1C	f
O=C(O)CNCP(=O)(O)O	f
CN(C)CCNS(=O)(=O)c1cccc2cccnc12	f

What call does the record list for O=c1oc2cc([N+](=O)[O-])ccc2c2ccccc12 ?
t

What call does the record list for N#CCCN ?
f

What call does the record list for Cc1c(C)c2c(c(C)c1O)CC[C@@](C)(CCC[C@H](C)CCC[C@H](C)CCCC(C)C)O2 ?
f

What call does the record list for O=C1c2c(O)ccc(O)c2C(=O)C2C(O)=CC=C(O)C12 (configuration not stated) ?
f

What call does the record list for O=c1c(Cl)c(Cl)cnn1S(=O)(=O)c1ccc([N+](=O)[O-])cc1 ?
t

What call does the record list for O.O.O.O=C([O-])[C@H]([O-])[C@@H]([O-])C(=O)[O-].O=C([O-])[C@H]([O-])[C@@H]([O-])C(=O)[O-].[K+].[K+].[Sb+3].[Sb+3] ?
f

What call does the record list for Cc1ccccc1N ?
f

What call does the record list for Nc1c(O)cccc1[N+](=O)[O-] ?
f

What call does the record list for O=C(C(=O)c1ccccc1)c1ccccc1 ?
f
